Data origin: patent US20030092631A1

Target: IGF-1 (human, UniProt P05019 49-118)
Sequence (P05019 49-118): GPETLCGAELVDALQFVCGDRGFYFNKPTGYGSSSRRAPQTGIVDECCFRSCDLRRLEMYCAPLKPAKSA
Experiment: cell-based or functional assay
metric: Insulin KIRA (µM)
Report the value in µM with no unit label.

Take a look at these entries with their results.
DECLMSVEALKNCMGG [F1-P]	183
LGCASDLAGFWYCWAG [F2-1]	40.4

Kindly review the next binder as well.
Quick one: Insulin KIRA of MDCLASVEALKWCMYG (synthetic peptide) [F1-2] ?
32.6
